Source: patent US20210147523A1

Give Emax for every item shown.
testedSystem: T1, mouse SPNS2 (mouse, UniProt Q91VM4 1-549)
T1 construct: on Flp-in 293 cells that also express human SphK1
T1 sequence: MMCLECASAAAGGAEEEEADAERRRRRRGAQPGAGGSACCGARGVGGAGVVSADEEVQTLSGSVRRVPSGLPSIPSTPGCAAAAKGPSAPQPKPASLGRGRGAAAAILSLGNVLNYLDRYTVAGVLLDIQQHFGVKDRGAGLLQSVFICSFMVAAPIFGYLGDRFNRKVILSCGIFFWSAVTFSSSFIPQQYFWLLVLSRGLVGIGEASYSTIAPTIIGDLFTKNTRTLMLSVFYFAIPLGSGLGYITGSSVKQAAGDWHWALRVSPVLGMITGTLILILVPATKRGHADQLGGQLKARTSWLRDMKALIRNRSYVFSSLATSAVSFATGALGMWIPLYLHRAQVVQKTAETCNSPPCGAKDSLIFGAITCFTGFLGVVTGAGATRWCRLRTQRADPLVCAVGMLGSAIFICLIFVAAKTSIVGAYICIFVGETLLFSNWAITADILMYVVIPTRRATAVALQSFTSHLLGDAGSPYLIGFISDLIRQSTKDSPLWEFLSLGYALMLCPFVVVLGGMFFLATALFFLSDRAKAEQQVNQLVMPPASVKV
assayProtocol: Cell ELISA
Form entry: value (absorbance) — number only.

Entry 94-1311E (antibody, V domains shown) VH: EVQLQQSGAGLVRPRTSVRLSCKISGDSITAYYVHFVKQRPGQGLEWIGRIDPEDDSTKYSEKFKNKATLTADVSSSTAYLILSSLTSDDSATYFCSTLTGLDYWGQGVMVTVSS VL: DIQMTQSPPVLSASVGDRVTLSCKASQSVHNKLDWYQQKHGEAPKLLIYYTHNLQTGIPSRFSGSGSGSDYTLTISSLRAEDVATYYCFQYYSGWTFGGGTKLEMKR — recorded Emax = 1.52

Entry 93-1310F (antibody, IgG2b, V domains shown) VH: EVQLVETGGGLVQPGSSLKLSCATSGFTFSDTWMSWVRQAPGKGLEWVALIKDKNSNYEANYAESVKGRFTISRDDSKRRVYLQMFTLRDQDTATYYCTSHEDFYYYSSYYFDYWGHGVMVTVSS VL: DIVLTQSPATLSVTPGESVSLSCRASQGISTSIHWYQQKSNGSPRLLIKYASQSISGIPSRFSGSGSGTDFTLRINRVESEDFSVYYCQQTYSLPLTFGSGTRLEIKR — recorded Emax = 1.61

Entry 83-1110B (antibody, IgG2b, V domains shown) VH: EVQLQQSGPEFVRPGTSVKFSCKVSGGSITSYFIHFVKQRPGQGLEWIGKIDPEDDSTKYGEKFKNKATLTADTSSNTAFLKLSSLTSEDTAIYFCTTLTGLDYWGQGVMVTVSS VL: DIQMTQSPPVLSAAVGDRVTLSCKASRSLNKNLDWYQQKHGETPKLLIYHTHNLQTGIPSRFSGSGSDTDYTLTISSLQTEDVATYYCYQYHSGWTFGGGTRLELRR — recorded Emax = 1.59

Entry 50-0704C (antibody, IgG2b, V domains shown) VH: EVQLVGSGGGLVQPGRSMKLSCEASGFTFSNHYMAWVRQAPTKGLEWVATISTGGGNTYYRDSVKGRFTISRDNARSTLSLQMDSLRSEDTATYYCARQDYSNYMGGFAYWGQGTLVTVSS VL: QFVLTQPNSVSTNLGSTVKLSCTRSIGNIGNNYVNWYKQYEGRSPTTMIYRDDERPDGVPDRFSGSIDRSSNSALLTINSVQTEDEADYFCQSFSSGIFIFGGGTKLTVL — recorded Emax = 1.9

Entry 18-0211B (antibody, IgG2b, V domains shown) VH: AVQLVGSGGGLVQPGRSMKLSCEASGFTFSNHYMAWVRQAPTRGLEWVATISTGGGNTYYRDSVKGRFTISRDNTRSTLSLQMDSLRSEDTATYYCTRQDYTNYMGGFAYWGQGTLVTVSS VL: QFVLTQPNSVSTNLGSTVKLSCTRSIGNIGNNYVNWYKQYEGRSPTTLIYRDDERPDGVPDRFSGSIDRSSNSALLTINSVQTEDGADYFCQSFSSGIFIFGGGTTLTVL — recorded Emax = 1.61

Entry 84-1111F (antibody, IgG2b, V domains shown) VH: EVQVVESGGGLVQPGRSMKLSCAALGFTFRDYYMAWVRQTPTKGLEWVAAISTGGGNTYYRDSVKGRFTISRDNAKSTLYLKMDSLRSDDTATYYCARNPYGNYFDYWGQGVMVTVSS VL: QFVLSQPNSVSTNLGSTVKLSCKRSTGNIGSNYVHWYQRHEGRSPTTMIYRDDKRPNGVPDRFSGSIDRSSNSALLTINNVQTEDEADYFCQSYSGGMYLFGGGTTLTVL — recorded Emax = 1.55

Entry 49-0703G (antibody, IgG2b, V domains shown) VH: EVQLVESGGGLVQPGRSMKLSCAASGFTFSNHYMAWVRQAPTKGLEWVASISTGGGNTYYRDSVKGRFTISRDNAKSTLYLQMDSLRSEDTATYYCARQDYSNYMGGFAYWGQGTLVTVSS VL: QFVLTQPNSVSTNLGSTVKLSCKRSTGNIGNNYVNWYQQYEGRSPTTMIYRDDERPDGVPDRFSGSIDRSSNSALLTINNVQTEDEADYFCQSFSNGMFIFAGGTQLTVL — recorded Emax = 1.67

Entry 64-0807A (antibody, IgG2b, V domains shown) VH: EVQVVESGGGLVQPGRSMKLSCAALGFTFRDYYMAWVRQTPTKGLEWVAAISTGGGNTYYRDSVKGRFTISRDNAKSTLYLQMDSLRSDDTATYYCARNPYGNYFDYWGQGVMVTVSS VL: QFVLSQPNSVSTNLGSTVKLSCKRSTGNIGSNYVHWYQRHEGRSPTTLIYRDDKRPNGVPDRFSGSIDRSSNSALLTINNVQTEDEADYFCQSYSGGMYLFGGGTKLTVL — recorded Emax = 1.88

Entry 80-1104A (antibody, IgG2b, V domains shown) VH: EVQLVETGGGLVQPGSSLKLSCSTSGFTFSETWMSWVRQAPGKGLEWVGLIKDKNSNYEANYAESVKGRFTISRDDSKRRVYLQMYTLRDQDTATYYCTSHEDFYYYSSYYFDYWGQGVMVTVSS VL: DIVLTQSPATLSVTPGESVSLSCRASQGISTSIHWYQQKSNESPRLLIKYASQSMSGIPSRFSGSGSGTDFTLRINRVESEDFSVYYCQQSYNLPLTFGSGTKLEIKR — recorded Emax = 1.61

Entry 96-1403F (antibody, IgG2b, V domains shown) VH: EVQLVETGGGLVRPGSSLKLSCATSGFTFSDTWMSWVRQAPGKGLEWVALIKDKNSNSEANYAESIKGRFTISRDDSKSRVYLQMNTLRDQDTATYYCTRHEDFYYYSGYYFDYWGQGVMVTVSS VL: DIVLTQSPPTLSVTPGESVSLSCRASQGISTSIHWYQQRSNESPRLLIKYASQSIAGIPSRFSGSGSGTDFILSINRVESEDFSVYYCQQTYSLPLTFGPGTKLEVKR — recorded Emax = 1.78
